Readings of IC50 for the listed compounds
ASSAY_TARGET: UniProtKB P13945
TEST: Homogeneous Time-Resolved Fluorescence (HTRF) cAMP antagonist assay, IC50 determination
CONDITION_LABEL: CHO-K1 cells stably expressing recombinant receptor, isoproterenol at EC90
Answer in nM, number only, no unit symbol.

Solved entries:
                                   compound  assay_result
0  CNS(=O)(=O)c1cccc(OC[C@@H](O)CNC2COC3(CCN(S(=O)(=O)c4cccc(F)c4)CC3)C2)c1 (some centres unmarked)          16.2
1  CNS(=O)(=O)c1cccc(OC[C@@H](O)CNC2COC3(CCN(S(=O)(=O)c4cccc(C(F)(F)F)c4)CC3)C2)c1 (some centres unmarked)          18.7
2  CNS(=O)(=O)c1cccc(OC[C@@H](O)CN[C@H]2COC3(CCN(S(=O)(=O)c4cc(C)cc5c(O)ccnc45)CC3)C2)c1           179
3  CNS(=O)(=O)c1cccc(OC[C@@H](O)CNC2COC3(CCN(S(=O)(=O)c4cc(OC)ccc4C#N)CC3)C2)c1 (some centres unmarked)          30.8

Moving on to the next compound.
Summary line: CN1CCOc2ncc(S(=O)(=O)N3CCC4(CC3)C[C@@H](NC[C@H](O)COc3cccc(S(=O)(=O)N[C@@H]5CCCC[C@@H]5O)c3)CO4)cc21 , UniProtKB P13945, reported IC50 = 191

* * *

ASSAY_TARGET: UniProt:P13945
TEST: Homogeneous Time-Resolved Fluorescence (HTRF) cAMP antagonist assay, IC50 determination
CONDITION_LABEL: CHO-K1 cells stably expressing recombinant receptor, isoproterenol at EC90
In this section, each of the compounds is paired with its reported pIC50.
pIC50 is defined as minus the log10 of a concentration measured in mol/L.

# annotated cases, reported pIC50 shown
                                   compound    assay_target  assay_result
0  CCC(CC)CNS(=O)(=O)c1cccc(OC[C@@H](O)CNC2COC3(CCN(S(=O)(=O)c4ccc5ccccc5c4)CC3)C2)c1 (stereo partly shown)  UniProt:P13945          6.90
1  CNS(=O)(=O)c1cccc(OC[C@@H](O)CN[C@H]2COC3(CCN(S(=O)(=O)c4cnc5c(c4)N(C)CC4(CC4)O5)CC3)C2)c1  UniProt:P13945          7.35
2  CNS(=O)(=O)c1cccc(OC[C@@H](O)CNC2COC3(CCN(S(=O)(=O)c4cc(Cl)ccc4Cl)CC3)C2)c1 (stereo partly shown)  UniProt:P13945          7.95
3  CNS(=O)(=O)c1cccc(OC[C@@H](O)CNC2COC3(CCN(S(=O)(=O)c4c(C)nn(-c5ccccc5)c4C)CC3)C2)c1 (stereo partly shown)  UniProt:P13945          7.32
4  CNS(=O)(=O)c1cccc(OC[C@@H](O)CN[C@@H]2COC3(CCN(S(=O)(=O)c4cccc(-c5ccc(CC#N)cc5)c4)CC3)C2)c1  UniProt:P13945          7.79
5  CNS(=O)(=O)c1cccc(OC[C@@H](O)CNC2COC3(CCN(S(=O)(=O)c4cn(C)nc4C(F)(F)F)CC3)C2)c1 (stereo partly shown)  UniProt:P13945          7.04
6  CCn1ccc(=O)c(S(=O)(=O)N2CCC3(CC2)C[C@@H](NC[C@H](O)COc2cccc(S(N)(=O)=O)c2)CO3)c1  UniProt:P13945          5.62
7  CNS(=O)(=O)c1cccc(OC[C@@H](O)CNC2COC3(CCN(S(=O)(=O)c4cccc(-c5ccc(CNCC#N)cc5)c4)CC3)C2)c1 (stereo partly shown)  UniProt:P13945          7.33

Reported pIC50 ( CCCN1CCOc2ncc(S(=O)(=O)N3CCC4(CC3)C[C@@H](NC[C@H](O)COc3cccc(S(=O)(=O)NC)c3)CO4)cc21 ) = 7.45

// sample CNS(=O)(=O)c1cccc(OC[C@@H](O)CNC2COC3(CCN(S(=O)(=O)c4cccc(-c5ccccc5)c4)CC3)C2)c1 (stereo partly shown) , its pIC50 was 7.68

For CNS(=O)(=O)c1cccc(OC[C@@H](O)CN[C@H]2COC3(CCN(S(=O)(=O)c4cccc(-c5ccc(CNC(C)C)cc5)c4)CC3)C2)c1 the compound record lists pIC50 as 7.56

So for CCNS(=O)(=O)c1cccc(OC[C@@H](O)CN[C@H]2COC3(CCN(S(=O)(=O)c4cnc5cc[nH]c5c4)CC3)C2)c1 , the logged pIC50 turned out to be 7.84

The reported pIC50 of the compound CCNS(=O)(=O)c1cccc(OC[C@@H](O)CNC2COC3(CCN(S(=O)(=O)c4ccc5c(c4)CCCC5)CC3)C2)c1 (stereo partly shown) was 7.14

Given item CNS(=O)(=O)c1cccc(OC[C@@H](O)CN[C@H]2COC3(CCN(S(=O)(=O)c4cnc5[nH]c(C)c(Cl)c5c4)CC3)C2)c1 , the value recorded as its pIC50 is 8.11

Given item CCCCCCCc1cnc(N2CCC3(CC2)C[C@@H](NC[C@H](O)COc2cccc(S(=O)(=O)NC)c2)CO3)nc1 , the value recorded as its pIC50 is 6.37

Item: CNS(=O)(=O)c1cccc(OC[C@@H](O)CNC2COC3(CCN(S(=O)(=O)c4cccc5ccccc45)CC3)C2)c1 (stereo partly shown) | pIC50: 7.74

// sample CNS(=O)(=O)c1cccc(OC[C@@H](O)CN[C@H]2COC3(CCN(S(=O)(=O)c4cnc5nc[nH]c5c4)CC3)C2)c1 , its pIC50 was 7.30

CNS(=O)(=O)c1cccc(OC[C@@H](O)CNC2COC3(CCN(S(=O)(=O)C4CCCCC4)CC3)C2)c1 (stereo partly shown) yielded pIC50 of 7.11

get_value(item= Cc1ccc(F)c(S(=O)(=O)N2CCC3(CC2)CC(NC[C@H](O)COc2cccc(S(=O)(=O)NCCCN(C)C)c2)CO3)c1 (stereo partly shown) , readout=pIC50) returns 5.52

* * *

Overview of reported IC50 across a group of molecules:
ASSAY_TARGET: Beta-3 Adrenergic Receptor (Homo sapiens (Human))
Sequence (P13945 whole entry, species assumed): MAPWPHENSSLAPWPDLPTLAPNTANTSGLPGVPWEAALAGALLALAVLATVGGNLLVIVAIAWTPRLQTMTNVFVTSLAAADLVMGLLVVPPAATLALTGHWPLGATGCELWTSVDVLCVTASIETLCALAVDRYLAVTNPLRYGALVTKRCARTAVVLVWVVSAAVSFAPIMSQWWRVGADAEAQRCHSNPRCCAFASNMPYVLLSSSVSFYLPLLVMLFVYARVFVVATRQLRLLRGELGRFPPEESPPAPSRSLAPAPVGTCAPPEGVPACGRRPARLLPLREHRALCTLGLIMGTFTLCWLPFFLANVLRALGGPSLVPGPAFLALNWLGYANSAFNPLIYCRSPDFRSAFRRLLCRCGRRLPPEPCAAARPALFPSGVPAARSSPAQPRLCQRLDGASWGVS
TEST: Homogeneous Time-Resolved Fluorescence (HTRF) cAMP antagonist assay, IC50 determination
CONDITION_LABEL: CHO-K1 cells stably expressing recombinant receptor, isoproterenol at EC90
Your reply should be a number followed by the unit it is expressed in.

Some solved entries appear below for comparison.
>>> df
                                   molecule                              assay_target  assay_result
0  CNS(=O)(=O)c1cccc(OC[C@@H](O)CNC2COC3(CCN(S(=O)(=O)c4cc(Cl)c(Cl)s4)CC3)C2)c1 (stereo partly drawn)  Beta-3 Adrenergic Receptor (Homo sapiens (Human))       20.8 nM
1  COCCCNS(=O)(=O)c1cccc(OC[C@@H](O)CNC2COC3(CCN(S(=O)(=O)c4ccc5ccccc5c4)CC3)C2)c1 (stereo partly drawn)  Beta-3 Adrenergic Receptor (Homo sapiens (Human))       39.8 nM

CCCn1cc(S(=O)(=O)N2CCC3(CC2)C[C@@H](NC[C@H](O)COc2cccc(S(N)(=O)=O)c2)CO3)c(=O)c2ccccc21 yielded IC50 of 74.7 nM

* * *

ASSAY_TARGET: Beta-3 Adrenergic Receptor (Homo sapiens (Human))
TEST: Homogeneous Time-Resolved Fluorescence (HTRF) cAMP antagonist assay, IC50 determination
CONDITION_LABEL: CHO-K1 cells stably expressing recombinant receptor, isoproterenol at EC90
MEASURED_METRIC: pIC50
Scale for pIC50: -log10 of concentration given in mol/L; no unit attached.

Example entries begin here.
>>> print(df.to_string())
                                   molecule  measured_metric  assay_result
0  CNS(=O)(=O)c1cccc(OC[C@@H](O)CN[C@H]2COC3(CCN(S(=O)(=O)c4cccc(-c5cc[nH]n5)c4)CC3)C2)c1            pIC50          7.76
1  CNS(=O)(=O)c1cccc(OC[C@@H](O)CN[C@H]2COC3(CCN(S(=O)(=O)c4cnc5c(F)cccc5c4O)CC3)C2)c1            pIC50          7.49
2  CNS(=O)(=O)c1cccc(OC[C@@H](O)CNC2COC3(CCN(S(=O)(=O)c4ccn(C)n4)CC3)C2)c1 (stereo partly shown)            pIC50          7.26
3  CNS(=O)(=O)c1cccc(OC[C@@H](O)CNC2COC3(CCN(S(=O)(=O)c4cc(Cl)ccc4C)CC3)C2)c1 (stereo partly shown)            pIC50          7.55
4  CNS(=O)(=O)c1cccc(OC[C@@H](O)CNC2COC3(CCN(S(=O)(=O)c4ccc(Cl)c(C)c4)CC3)C2)c1 (stereo partly shown)            pIC50          8.27
5  CNS(=O)(=O)c1cccc(OC[C@@H](O)CN[C@H]2COC3(CCN(c4nccc(N)n4)CC3)C2)c1            pIC50          6.37
6  CNS(=O)(=O)c1cccc(OC[C@@H](O)CNC2COC3(CCN(S(=O)(=O)c4ccc5c(ccn5C)c4)CC3)C2)c1 (stereo partly shown)            pIC50          8.02
7  CNS(=O)(=O)c1cccc(OC[C@@H](O)CNC2COC3(CCN(S(=O)(=O)c4cc5c(nc4Cl)OCCN5C)CC3)C2)c1 (stereo partly shown)            pIC50          7.48
8  CCCNS(=O)(=O)c1cccc(OC[C@@H](O)CNC2COC3(CCN(S(=O)(=O)c4ccc5ccccc5c4)CC3)C2)c1 (stereo partly shown)            pIC50          7.68
9  Cc1cc(S(=O)(=O)N2CCC3(CC2)C[C@@H](NC[C@H](O)COc2cccc(S(N)(=O)=O)c2)CO3)ccc1Br            pIC50          7.76

molecule CNS(=O)(=O)c1cccc(OC[C@@H](O)CN[C@H]2COC3(CCN(S(=O)(=O)c4ccc5c(c4)NC(=O)CO5)CC3)C2)c1 , pIC50 observed: 7.50

Record CNS(=O)(=O)c1cccc(OC[C@@H](O)CNC2COC3(CCN(S(=O)(=O)c4ccc(-c5ccccc5)s4)CC3)C2)c1 (stereo partly shown) , field pIC50: 8.11

Input CNS(=O)(=O)c1cccc(OC[C@@H](O)CNC2COC3(CCN(S(=O)(=O)c4cccc(-c5ccc(CN)cc5)c4)CC3)C2)c1 (stereo partly shown) . Output pIC50: 8.15

Query CNS(=O)(=O)c1cccc(OC[C@@H](O)CN[C@H]2COC3(CCN(S(=O)(=O)c4cc5c(nc4C)OCCN5C)CC3)C2)c1 yields pIC50 of 7.00

Note to self: pIC50 recorded for CNS(=O)(=O)c1cccc(OC[C@@H](O)CN[C@H]2COC3(CCN(c4cnccn4)CC3)C2)c1 was 6.12

So for CNS(=O)(=O)c1cccc(OC[C@@H](O)CNC2COC3(CCN(S(=O)(=O)c4cccc(CO)c4)CC3)C2)c1 (stereo partly shown) , the logged pIC50 turned out to be 6.82

pIC50 recorded for this molecule, CNS(=O)(=O)c1cccc(OC[C@@H](O)CNC2COC3(CCN(S(=O)(=O)c4cc(-c5ccc(CN)cc5)ccc4C)CC3)C2)c1 (stereo partly shown) , is 7.68

GET /value?item= COCCNS(=O)(=O)c1cccc(OC[C@@H](O)CN[C@H]2COC3(CCN(S(=O)(=O)c4cnc5c(c4)N(C)CCO5)CC3)C2)c1 &field=pIC50 returns 6.80

# molecule Cc1ccc(F)c(S(=O)(=O)N2CCC3(CC2)CC(NC[C@H](O)COc2cccc(S(=O)(=O)N(C)C)c2)CO3)c1 (stereo partly shown) ; its pIC50 = 7.39
